viability, T/C: recorded values
Test system: KRAS-mutant PDC complex spheroid viability
Experiment: Anticancer human tumor 186277-243-T-J2-PDC patient-derived colon adenocarcinoma cell line growth inhibition [KRAS2]
Details: second compound 0.1 µM; first compound 1 µM; hits give low values
Excerpt: Multicellular complex tumor spheroid response to RAS pathway inhibitors in combination with a targeted agents in patient-derived cell lines with oncogenic KRAS variants from multiple cancer types A high-throughput screen of multi-cell type tumor spheroids was designed to identify active combinations of targeted small molecules and KRAS pathway inhibitors. […] Compounds. […] If the clinical Cmax for an agent had not been determined, the highest concentration tested was 10 microM. […]
Response body: numeric value in %, unit text excluded.

molecule: Cn1nccc1Nc1nccc(-c2cc3c(s2)C(C)(C)N(CCN2CCOCC2)C3=O)n1 + CNCc1ccccc1-c1csc(C(C)Nc2nc(C)nc3cc(OC)c(OC)cc23)c1
output.unit: %
viability, T/C: 13.5
--
molecule: CC(C)NCC(C(=O)N1CCN(c2ncnc3c2C(C)CC3O)CC1)c1ccc(Cl)cc1 (stereo not drawn) + C=CC(=O)N1CCN(c2nc(OCC3CCCN3C)nc3c2CCN(c2cccc4cccc(C)c24)C3)CC1CC#N
output.unit: %
viability, T/C: 36.5
--
molecule: COc1cc(Nc2ncc3c(n2)-c2ccc(Cl)cc2C(c2c(F)cccc2OC)=NC3)ccc1C(=O)O + CC1OCC2(CCN(c3cnc(Sc4ccnc(N)c4Cl)c(N)n3)CC2)C1N
output.unit: %
viability, T/C: 35.2
--
molecule: COc1cc2nccc(Oc3ccc(NC(=O)C4(C(=O)Nc5ccc(F)cc5)CC4)cc3)c2cc1OC + C=CC(=O)N1CCN(c2nc(=O)n(-c3c(C)ccnc3C(C)C)c3nc(-c4c(O)cccc4F)c(F)cc23)C(C)C1
output.unit: %
viability, T/C: 93.7
--
molecule: CC(C)NCC(C(=O)N1CCN(c2ncnc3c2C(C)CC3O)CC1)c1ccc(Cl)cc1 (stereo not drawn) + CNCc1ccccc1-c1csc(C(C)Nc2nc(C)nc3cc(OC)c(OC)cc23)c1
output.unit: %
viability, T/C: 37.8

For COc1cc2nccc(Oc3ccc(NC(=O)C4(C(=O)Nc5ccc(F)cc5)CC4)cc3)c2cc1OC + COc1cc2nc(C)nc(NC(C)c3cc(N)cc(C(F)(F)F)c3)c2cc1OC1CCOC1 , what is its reported viability, T/C?
12.5

For O=C(c1cc(Cc2n[nH]c(=O)c3ccccc23)ccc1F)N1CCN(C(=O)C2CC2)CC1 + C=CC(=O)N1CCN(c2nc(=O)n(-c3c(C)ccnc3C(C)C)c3nc(-c4c(O)cccc4F)c(F)cc23)C(C)C1 , what is its reported viability, T/C?
78

For CC1(C)CCC(CN2CCN(c3ccc(C(=O)NS(=O)(=O)c4ccc(NCC5CCOCC5)c([N+](=O)[O-])c4)c(Oc4cnc5[nH]ccc5c4)c3)CC2)=C(c2ccc(Cl)cc2)C1 + C=CC(=O)N1CCN(c2nc(=O)n(-c3c(C)ccnc3C(C)C)c3nc(-c4c(O)cccc4F)c(F)cc23)C(C)C1 , what is its reported viability, T/C?
108

For CCN1CCN(Cc2ccc(Nc3ncc(F)c(-c4cc(F)c5nc(C)n(C(C)C)c5c4)n3)nc2)CC1 + COc1cc2nc(C)nc(NC(C)c3cc(N)cc(C(F)(F)F)c3)c2cc1OC1CCOC1 , what is its reported viability, T/C?
69.4

---

Test system: KRAS-mutant PDC complex spheroid viability
Assay: Anticancer human tumor 186277-243-T-J2-PDC cell line growth inhibition [KRAS2];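 note: viability read after seven days of compound exposure; 100% = DMSO vehicle-treated spheroids so lower means less viable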
Conditions: second compound 10 µM; first compound 0.0316 µM; hits give low values
experimental.endpoint: viability, T/C (%)
Response body: numeric value in %, unit text excluded.

molecule: COc1cc2nccc(Oc3ccc(NC(=O)C4(C(=O)Nc5ccc(F)cc5)CC4)cc3)c2cc1OC + C=CC(=O)N1CCN(c2nc(=O)n(-c3c(C)ccnc3C(C)C)c3nc(-c4c(O)cccc4F)c(F)cc23)C(C)C1
output.unit: %
viability, T/C: 49.9

For COc1cc(Nc2ncc3c(n2)-c2ccc(Cl)cc2C(c2c(F)cccc2OC)=NC3)ccc1C(=O)O + C=CC(=O)N1CCN(c2nc(=O)n(-c3c(C)ccnc3C(C)C)c3nc(-c4c(O)cccc4F)c(F)cc23)C(C)C1 , what is its reported viability, T/C?
20.7

For COc1cc2nccc(Oc3ccc(NC(=O)C4(C(=O)Nc5ccc(F)cc5)CC4)cc3)c2cc1OC + COc1cc2nc(C)nc(NC(C)c3cc(N)cc(C(F)(F)F)c3)c2cc1OC1CCOC1 , what is its reported viability, T/C?
92.2

For CCN1CCN(Cc2ccc(Nc3ncc(F)c(-c4cc(F)c5nc(C)n(C(C)C)c5c4)n3)nc2)CC1 + COc1cc2nc(C)nc(NC(C)c3cc(N)cc(C(F)(F)F)c3)c2cc1OC1CCOC1 , what is its reported viability, T/C?
100

For CC1(C)CCC(CN2CCN(c3ccc(C(=O)NS(=O)(=O)c4ccc(NCC5CCOCC5)c([N+](=O)[O-])c4)c(Oc4cnc5[nH]ccc5c4)c3)CC2)=C(c2ccc(Cl)cc2)C1 + CC1OCC2(CCN(c3cnc(Sc4ccnc(N)c4Cl)c(N)n3)CC2)C1N , what is its reported viability, T/C?
80.1

---

Tested on: KRAS-mutant PDC complex spheroid viability
Assay: Anticancer human tumor 186277-243-T-J2-PDC cell line growth inhibition [KRAS2];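 note: viability read after seven days of compound exposure; 100% = DMSO vehicle-treated spheroids so lower means less viable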
Conditions: second compound 3.16 µM; first compound 0.316 µM; hits give low values
experimental.endpoint: viability, T/C

compound: Cn1nccc1Nc1nccc(-c2cc3c(s2)C(C)(C)N(CCN2CCOCC2)C3=O)n1 + CC1OCC2(CCN(c3cnc(Sc4ccnc(N)c4Cl)c(N)n3)CC2)C1N
experimental.endpoint: viability, T/C
value.measured: 13%
//
compound: Cn1nccc1Nc1nccc(-c2cc3c(s2)C(C)(C)N(CCN2CCOCC2)C3=O)n1 + COc1cc2nc(C)nc(NC(C)c3cc(N)cc(C(F)(F)F)c3)c2cc1OC1CCOC1
experimental.endpoint: viability, T/C
value.measured: 23.2%
//
compound: CC(C)NCC(C(=O)N1CCN(c2ncnc3c2C(C)CC3O)CC1)c1ccc(Cl)cc1 (stereo unspecified) + COc1cc2nc(C)nc(NC(C)c3cc(N)cc(C(F)(F)F)c3)c2cc1OC1CCOC1
experimental.endpoint: viability, T/C
value.measured: 96.5%
//
compound: CC1(C)CCC(CN2CCN(c3ccc(C(=O)NS(=O)(=O)c4ccc(NCC5CCOCC5)c([N+](=O)[O-])c4)c(Oc4cnc5[nH]ccc5c4)c3)CC2)=C(c2ccc(Cl)cc2)C1 + COc1cc2nc(C)nc(NC(C)c3cc(N)cc(C(F)(F)F)c3)c2cc1OC1CCOC1
experimental.endpoint: viability, T/C
value.measured: 111%
//
compound: CC1COCCN1c1cc(-c2ccnn2C)c2ccnc(-c3ccn[nH]3)c2n1 (stereo unspecified) + COc1cc2nc(C)nc(NC(C)c3cc(N)cc(C(F)(F)F)c3)c2cc1OC1CCOC1
experimental.endpoint: viability, T/C
value.measured: 2.87%
//
compound: CC(=O)OC12COC1CC(O)C1(C)C(=O)C(O)C3=C(C)C(OC(=O)C(O)C(NC(=O)OC(C)(C)C)c4ccccc4)CC(O)(C(OC(=O)c4ccccc4)C21)C3(C)C (stereo unspecified) + CC1OCC2(CCN(c3cnc(Sc4ccnc(N)c4Cl)c(N)n3)CC2)C1N
experimental.endpoint: viability, T/C
value.measured: 1.63%
//
compound: CCNC(=O)CC1N=C(c2ccc(Cl)cc2)c2cc(OC)ccc2-n2c(C)nnc21 (stereo unspecified) + COc1cc2nc(C)nc(NC(C)c3cc(N)cc(C(F)(F)F)c3)c2cc1OC1CCOC1
experimental.endpoint: viability, T/C
value.measured: 107%
//
compound: COc1cc2nccc(Oc3ccc(NC(=O)C4(C(=O)Nc5ccc(F)cc5)CC4)cc3)c2cc1OC + COc1cc2nc(C)nc(NC(C)c3cc(N)cc(C(F)(F)F)c3)c2cc1OC1CCOC1
experimental.endpoint: viability, T/C
value.measured: 80.7%
//
compound: CC(C)NCC(C(=O)N1CCN(c2ncnc3c2C(C)CC3O)CC1)c1ccc(Cl)cc1 (stereo unspecified) + CC1OCC2(CCN(c3cnc(Sc4ccnc(N)c4Cl)c(N)n3)CC2)C1N
experimental.endpoint: viability, T/C
value.measured: 25.6%
//
compound: COc1cc(Nc2ncc3c(n2)-c2ccc(Cl)cc2C(c2c(F)cccc2OC)=NC3)ccc1C(=O)O + CC1OCC2(CCN(c3cnc(Sc4ccnc(N)c4Cl)c(N)n3)CC2)C1N
experimental.endpoint: viability, T/C
value.measured: 15.8%

Now consider a different compound.
Query for KRAS-mutant PDC complex spheroid viability: what viability, T/C does the record show for CCNC(=O)CC1N=C(c2ccc(Cl)cc2)c2cc(OC)ccc2-n2c(C)nnc21 (stereo unspecified) + C=CC(=O)N1CCN(c2nc(OCC3CCCN3C)nc3c2CCN(c2cccc4cccc(C)c24)C3)CC1CC#N ?
1.62%
